// provenance: ChEMBL document CHEMBL1212820

I'd appreciate it if you could supply IC50 values for the items below.
molecular target: Serine/threonine-protein kinase B-raf (Homo sapiens, UniProt P15056, V600E); assay: Inhibition of B-Raf V600E mutant
Sequence (P15056 2-766 V600E limits assumed): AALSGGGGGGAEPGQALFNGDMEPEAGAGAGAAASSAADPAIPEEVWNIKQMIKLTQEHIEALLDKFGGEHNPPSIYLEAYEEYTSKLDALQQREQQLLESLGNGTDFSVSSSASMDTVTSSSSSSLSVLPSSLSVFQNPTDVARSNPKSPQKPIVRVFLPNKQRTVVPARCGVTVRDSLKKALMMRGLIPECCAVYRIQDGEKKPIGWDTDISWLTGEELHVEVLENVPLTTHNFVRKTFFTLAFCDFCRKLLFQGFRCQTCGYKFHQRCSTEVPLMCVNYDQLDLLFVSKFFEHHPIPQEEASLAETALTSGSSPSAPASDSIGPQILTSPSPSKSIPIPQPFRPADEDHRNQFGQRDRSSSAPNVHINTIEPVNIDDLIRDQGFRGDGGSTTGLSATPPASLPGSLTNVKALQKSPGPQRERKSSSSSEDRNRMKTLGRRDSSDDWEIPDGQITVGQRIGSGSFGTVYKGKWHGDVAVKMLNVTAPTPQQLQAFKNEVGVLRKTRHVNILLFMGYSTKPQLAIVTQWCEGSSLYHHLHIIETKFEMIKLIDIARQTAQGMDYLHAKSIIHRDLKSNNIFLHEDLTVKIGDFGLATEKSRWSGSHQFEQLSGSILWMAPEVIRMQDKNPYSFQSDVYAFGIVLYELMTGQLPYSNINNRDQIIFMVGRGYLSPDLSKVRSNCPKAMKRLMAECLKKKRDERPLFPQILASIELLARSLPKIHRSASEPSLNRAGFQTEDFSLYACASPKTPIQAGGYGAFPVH
Give just the number in nM; leave the unit off.

stdin: Suppose we examine the compound `O=C(Nc1ccc(Oc2ccnc3ncc(=O)[nH]c23)cc1)Nc1ccc(Cl)c(C(F)(F)F)c1` ; what IC50 value has been reported?
stdout: 1290

stdin: Suppose we examine the compound `Cc1nc2nccc(Oc3ccc(NC(=O)Nc4cc(C(F)(F)F)ccc4F)c(F)c3)c2[nH]c1=O` ; what IC50 value has been reported?
stdout: 258

stdin: Suppose we examine the compound `CNc1cnc2c(Oc3ccc(NC(=O)Nc4cc(C(F)(F)F)ccc4F)c(F)c3)ccnc2n1` ; what IC50 value has been reported?
stdout: 107

stdin: Suppose we examine the compound `CSc1cc(Oc2ccnc3[nH]c(=O)c(C)nc23)ccc1NC(=O)Nc1cc(C(F)(F)F)ccc1F` ; what IC50 value has been reported?
stdout: 2

stdin: Suppose we examine the compound `CSc1cc(Oc2ccnc3[nH]c(=O)c(=O)[nH]c23)ccc1NC(=O)Nc1cc(C(F)(F)F)ccc1F` ; what IC50 value has been reported?
stdout: 2

stdin: Suppose we examine the compound `CN1CCN(c2cnc3c(Oc4ccc(NC(=O)Nc5cc(C(C)(C)C)nn5-c5ccccc5)c(F)c4)ccnc3n2)CC1` ; what IC50 value has been reported?
stdout: 4100

###

target: Serine/threonine-protein kinase B-raf (Homo sapiens, UniProt P15056, V600E); assay: Inhibition of BRAF V600E mutant-mediated ERK phosphorylation in human WM266.4 cells; assay type: cell-based
I'd appreciate it if you could supply IC50 values for the items below.
Give just the number in nM; leave the unit off.

stdin: Suppose we examine the molecule `CSc1cc(Oc2ccnc3[nH]c(=O)c(C)nc23)ccc1NC(=O)Nc1cc(C(C)(C)C)nn1-c1ccc(C)cc1` ; what IC50 value has been reported?
stdout: 6

stdin: Suppose we examine the molecule `Cc1ccc(-n2nc(C(C)(C)C)cc2NC(=O)Nc2ccc(Oc3ccnc4[nH]c(=O)cnc34)c3ccccc23)cc1` ; what IC50 value has been reported?
stdout: 10

stdin: Suppose we examine the molecule `CSc1cc(Oc2ccnc3[nH]c(=O)cnc23)ccc1NC(=O)Nc1cc(C(C)(C)C)nn1-c1ccc(C)cc1` ; what IC50 value has been reported?
stdout: 5

stdin: Suppose we examine the molecule `Cc1ccc(-n2nc(C(C)(C)C)cc2NC(=O)Nc2ccc(Oc3ccnc4[nH]c(=O)cnc34)cc2)cc1` ; what IC50 value has been reported?
stdout: 96

stdin: Suppose we examine the molecule `O=C(Nc1ccc(Oc2ccnc3[nH]cnc23)cc1F)Nc1cc(C(F)(F)F)ccc1F` ; what IC50 value has been reported?
stdout: 8500

stdin: Suppose we examine the molecule `CC(C)(C)c1cccc(C(=O)Nc2cccc(Oc3ccnc4[nH]c(=O)cnc34)c2)c1` ; what IC50 value has been reported?
stdout: 850

stdin: Suppose we examine the molecule `CN1CCN(c2cnc3c(Oc4ccc(NC(=O)Nc5cc(C(C)(C)C)nn5-c5ccccc5)c(F)c4)ccnc3n2)CC1` ; what IC50 value has been reported?
stdout: 750

stdin: Suppose we examine the molecule `Nc1nc2c(Oc3ccc(NC(=O)Nc4cc(C(F)(F)F)ccc4F)c(F)c3)ccnc2[nH]c1=O` ; what IC50 value has been reported?
stdout: 1550

stdin: Suppose we examine the molecule `Cc1ccc(-n2nc(C(C)(C)C)cc2NC(=O)Nc2cccc(Oc3ccnc4ncc(=O)[nH]c34)c2)cc1` ; what IC50 value has been reported?
stdout: 780

stdin: Suppose we examine the molecule `Cc1ccc(-n2nc(C(C)(C)C)cc2NC(=O)Nc2ccc(Oc3ccnc4nc(C)c(=O)[nH]c34)c3ccccc23)cc1` ; what IC50 value has been reported?
stdout: 176

stdin: Suppose we examine the molecule `CC(C)(C)c1cc(NC(=O)Nc2ccc(Oc3ccnc4ncc(=O)[nH]c34)cc2F)n(-c2ccccc2)n1` ; what IC50 value has been reported?
stdout: 650

stdin: Suppose we examine the molecule `CC(C)(C)c1cc(NC(=O)Nc2ccc(Oc3ccnc4nc(N)c(=O)[nH]c34)c3ccccc23)n(-c2ccccc2)n1` ; what IC50 value has been reported?
stdout: 36

stdin: Suppose we examine the molecule `O=C(Nc1cccc(Oc2ccnc3ncc(=O)[nH]c23)c1)c1cccc(OC(F)(F)F)c1` ; what IC50 value has been reported?
stdout: 37000

stdin: Suppose we examine the molecule `CC(C)(C)c1cc(NC(=O)Nc2ccc(Oc3ccnc4nc(N5CCOCC5)cnc34)cc2F)n(-c2ccccc2)n1` ; what IC50 value has been reported?
stdout: 750

stdin: Suppose we examine the molecule `Cc1nc2nccc(Oc3ccc(NC(=O)Nc4cc(C(F)(F)F)ccc4F)c(F)c3)c2[nH]c1=O` ; what IC50 value has been reported?
stdout: 20000

stdin: Suppose we examine the molecule `CN(C)c1nc2c(Oc3ccc(NC(=O)Nc4cc(C(C)(C)C)nn4-c4ccccc4)c(F)c3)ccnc2[nH]1` ; what IC50 value has been reported?
stdout: 1700

stdin: Suppose we examine the molecule `Cc1ccc(-n2nc(C(C)(C)C)cc2NC(=O)Nc2cccc(Oc3ccnc4[nH]c(=O)cnc34)c2)cc1` ; what IC50 value has been reported?
stdout: 274
